Test: Therapeutic drug monitoring of plasma dalbavancin concentrations (Cmin, Cmax) by LC-MS/MS
Type: in vivo, human (patients)
Details: human, in vivo; SD
reported.metric: Cmax (µg/mL)
Return type: number; implicit unit µg/mL.

Q: Request the reported Cmax associated with CN[C@H]1C(=O)N[C@@H]2Cc3ccc(cc3)Oc3cc4cc(c3O[C@@H]3O[C@H](C(=O)O)[C@@H](O)[C@H](O)[C@H]3NC(=O)CCCCCCCCC(C)C)Oc3ccc(cc3Cl)[C@@H](O)[C@@H]3NC(=O)[C@H](NC(=O)[C@@H]4NC(=O)[C@@H](NC2=O)c2cc(cc(O)c2Cl)Oc2cc1ccc2O)c1ccc(O)c(c1)-c1c(O[C@H]2O[C@H](CO)[C@@H](O)[C@H](O)[C@@H]2O)cc(O)cc1[C@@H](C(=O)NCCCN(C)C)NC3=O [dalbavancin]
Ans: 310
